target: Gamma-aminobutyric acid receptor subunit rho-1 (Homo sapiens, UniProt P24046); test: Antagonist activity at human recombinant GABAA rho1 receptor expressed in Xenopus laevis assessed as inhibition of GABA-induced chloride current production after 2 to 5 days by two-electrode voltage-clamp electrophysiological assay
Sequence (P24046 whole entry): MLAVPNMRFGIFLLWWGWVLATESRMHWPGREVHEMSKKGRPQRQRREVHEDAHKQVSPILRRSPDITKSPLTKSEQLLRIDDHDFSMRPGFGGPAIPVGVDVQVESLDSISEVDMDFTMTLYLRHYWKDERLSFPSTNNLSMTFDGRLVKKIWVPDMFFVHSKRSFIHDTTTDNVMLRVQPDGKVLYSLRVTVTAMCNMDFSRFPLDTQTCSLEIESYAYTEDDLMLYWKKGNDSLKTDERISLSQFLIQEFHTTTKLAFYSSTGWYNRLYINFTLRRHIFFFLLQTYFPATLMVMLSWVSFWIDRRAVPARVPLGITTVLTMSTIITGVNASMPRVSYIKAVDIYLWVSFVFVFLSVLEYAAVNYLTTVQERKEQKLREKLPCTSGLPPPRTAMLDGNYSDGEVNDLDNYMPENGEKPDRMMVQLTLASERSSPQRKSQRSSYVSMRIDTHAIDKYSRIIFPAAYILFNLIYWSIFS
MEASUREMENT KIND: log10 of IC50 (log10 of the value in µM)

{"columns": ["MOLECULE", "MEASUREMENT KIND", "RECORDED MEASUREMENT"],
 "data": [
  ["CNC(=O)C1=CCC(N)C1 (racemic)", "log10 of IC50", 2.61],
  ["CCONC(=O)C1=CCC(N)C1 (racemic)", "log10 of IC50", 2.18],
  ["CONC(=O)C1=CCC(N)C1 (racemic)", "log10 of IC50", 1.91],
  ["NC1CC=C(C(=O)NO)C1 (racemic)", "log10 of IC50", 1.11],
  ["NC1CC=C(C(=O)O)C1 (racemic)", "log10 of IC50", 0.82],
  ["CCCNC(=O)C1=CCC(N)C1 (racemic)", "log10 of IC50", 2.76],
  ["C=CCONC(=O)C1=CCC(N)C1 (racemic)", "log10 of IC50", 2.06],
  ["NC(=O)C1=CCC(N)C1 (racemic)", "log10 of IC50", 0.98]
]}

###

molecular target: GABA-A receptor; alpha-1/beta-2/gamma-2 (Homo sapiens) (UniProt P14867+P47870+P18507); assay: Agonist activity at human recombinant GABAAalpha1beta2gamma2L receptor expressed in Xenopus laevis assessed as induction of chloride current production at 300 uM after 2 to 5 days by two-electrode voltage-clamp electrophysiological assay relative to GABA
The source made the active and inactive calls. No cut-off for these calls is given here.

{"columns": ["COMPOUND", "Activity"],
 "data": [
  ["CONC(=O)C1=CCC(N)C1 (racemic)", "6.3%"],
  ["CCCCCNC(=O)C1=CCC(N)C1 (racemic)", "inactive"],
  ["CCONC(=O)C1=CCC(N)C1 (racemic)", "2.5%"],
  ["C=CCONC(=O)C1=CCC(N)C1 (racemic)", "1.7%"],
  ["CNC(=O)C1=CCC(N)C1 (racemic)", "inactive"],
  ["NC1CC=C(C(=O)O)C1 (racemic)", "59.7%"],
  ["CCCNC(=O)C1=CCC(N)C1 (racemic)", "inactive"],
  ["NC1CC=C(C(=O)NO)C1 (racemic)", "4.3%"],
  ["Cc1ccc(NC(=O)C2=CCC(N)C2)cc1 (racemic)", "inactive"]
]}

###

target: GABA-A receptor; alpha-1/beta-2/gamma-2 (Homo sapiens) (UniProt P14867+P47870+P18507); assay: Antagonist activity at human recombinant GABAAalpha1beta2gamma2L receptor expressed in Xenopus laevis assessed as inhibition of GABA-induced chloride current production at 300 uM after 2 to 5 days by two-electrode voltage-clamp electrophysiological assay relative to control
Calls of active or inactive are those of the source. No cut-off for these calls is given here.

{"columns": ["COMPOUND", "inhibition"],
 "data": [
  ["CNC(=O)C1=CCC(N)C1 (racemic)", "inactive"],
  ["CCCNC(=O)C1=CCC(N)C1 (racemic)", "inactive"],
  ["NC(=O)C1=CCC(N)C1 (racemic)", "23.3%"],
  ["CCCCCNC(=O)C1=CCC(N)C1 (racemic)", "inactive"],
  ["Cc1ccc(NC(=O)C2=CCC(N)C2)cc1 (racemic)", "inactive"]
]}

Where do these numbers come from? They come from ChEMBL document CHEMBL2396533.
